Recorded boiling point for the following molecules
Give just the number in °C; leave the unit off.

Example results:
1) CCCCCCCCCCCCCCCCCO	333
2) Cc1cnc2ccccc2n1	244
3) O=C(Cl)c1ccc2ccccc2c1	305
4) Oc1ccccc1S	217

boiling point in this record for COC(=O)C=Cc1ccccc1 : 260

boiling point in this record for [Se]=C=[Se] : 126

----------
Measured attribute: melting point (°C)
Give just the number in °C; leave the unit off.

Example results:
1. O=c1ccc2ccc(O)c(O)c2o1	262
2. CC1(C)[C@H](C(=O)O[C@H](C#N)c2cccc(Oc3ccccc3)c2)[C@@H]1/C=C\C(=O)OC(C(F)(F)F)C(F)(F)F	81.5
3. Cc1ccc2c(c1N)C(=O)c1ccccc1C2=O	206
4. CCCSCCC	-102
5. c1ccc(-c2nc3ccccc3o2)cc1	103

melting point in this record for CCC(C)(C)CC : -135

melting point in this record for CC1(C)C=CC=C(C(=O)O)C=C1 : 88.5

melting point in this record for CC(COc1ccc(Oc2ccccc2)cc1)Oc1ccccn1 (centres undefined) : 46

melting point in this record for CCC(C)c1ccc(O)cc1 (centres undefined) : 61.5
